target.or.test.system: HLA-A*2401 (human)
experimental.details: competition with 125I-labelled probe peptide for purified HLA, gel filtration
Think of 0.4 as a floor: if relative binding ratio (IC50 of standard peptide / IC50 of test peptide) stands on it or above, it is criterion met; beneath it, criterion not met.

Please tell me: is the binder LFPPEGVSI [PAP position 123, 9 amino acids] at or over 0.4 in terms of relative binding ratio (IC50 of standard peptide / IC50 of test peptide)? criterion not met

Please tell me: is the binder LFPPEGVSIW [PAP position 123, 10 amino acids] at or over 0.4 in terms of relative binding ratio (IC50 of standard peptide / IC50 of test peptide)? criterion not met

Please tell me: is the binder LFFWLDRSVL [PAP position 22, 10 amino acids] at or over 0.4 in terms of relative binding ratio (IC50 of standard peptide / IC50 of test peptide)? criterion not met

Please tell me: is the binder LYFEKGEYF [PAP position 318, 9 amino acids] at or over 0.4 in terms of relative binding ratio (IC50 of standard peptide / IC50 of test peptide)? criterion met

Please tell me: is the binder LYCESVHNF [PAP position 213, 9 amino acids] at or over 0.4 in terms of relative binding ratio (IC50 of standard peptide / IC50 of test peptide)? criterion met
